Entries and their LD50
- PROCEDURE SUMMARY: Toxicity in iv dosed rat administered continuously
- Format: organism-based
- TEST CONDITIONS: in vivo
Just the number in mg/kg, nothing appended.

CC1CN(CCOC(=O)c2ccc(N)cc2)CC(C)O1 (configuration not stated)	180

[Q] Complete the entry with LD50 for CCN(CC)CCOC(=O)c1ccc(N)cc1 [PROCAINE]
[A] 78.8

====

- PROCEDURE SUMMARY: Therapeutic index, ratio of LD50 for toxicity in mouse to ED50 for anesthetic activity in mouse
- Assay type: organism-based
- TEST CONDITIONS: in vivo, read-out: Ratio LD50/ED50
READOUT: selectivity ratio
Form: value (number only, do not type unit).

In the examples that follow, each entry is paired with its recorded selectivity ratio.
Nc1ccc(C(=O)OCCN2CCSCC2)cc1	2.33
CC(C)(C)N1CCN(CCOC(=O)c2ccc(N)cc2)CC1	1.86
CCN(CCOC)CCOC(=O)c1ccc(N)cc1	1.52
CC1CC(C)CN(CCOC(=O)c2ccc(N)cc2)C1 (stereo not drawn)	2.02
CCN(CC)CCOC(=O)c1ccc(N)cc1	1.65
Nc1ccc(C(=O)OCCN2CCOCC2)cc1	2.46

[Q] Query selectivity ratio for Nc1ccc(C(=O)OCCN2CC[S+]([O-])CC2)cc1
[A] 2.57

[Q] Output selectivity ratio of CC1COCCN1CCOC(=O)c1ccc(N)cc1 (stereo not drawn)
[A] 2.13

[Q] Give recorded selectivity ratio. CC1CN(CCOC(=O)c2ccc(N)cc2)CCO1 (stereo not drawn)
[A] 2.08

[Q] Fill in selectivity ratio for record CC1CN(CCOC(=O)c2ccc(N)cc2)CC(C)O1 (stereo not drawn)
[A] 2.68

[Q] For the molecule COCCN(CCOC)CCOC(=O)c1ccc(N)cc1 , give its reported selectivity ratio.
[A] 1.89

[Q] Supply selectivity ratio value. Item: CC1COCC(C)N1CCOC(=O)c1ccc(N)cc1 (stereo not drawn)
[A] 2.49

[Q] Specify measured selectivity ratio for Nc1ccc(C(=O)OCCN2CCS(=O)(=O)CC2)cc1 .
[A] 2.53

====

- PROCEDURE SUMMARY: Toxicity in mouse administered as single injection via caudal vein
- TEST CONDITIONS: in vivo, route iv
Examples of compounds with documented LD50 follow.
Report the value in mg/kg with no unit label.

Guide cases for LD50, answers given:
CCN(CCOC)CCOC(=O)c1ccc(N)cc1	60.3
CN1CCN(CCOC(=O)c2ccc(N)cc2)CC1	100
CC(C)(C)N1CCN(CCOC(=O)c2ccc(N)cc2)CC1	78.4
CCN1CCN(CCOC(=O)c2ccc(N)cc2)CC1	64.3
Nc1ccc(C(=O)OCCN2CCSCC2)cc1	126
Nc1ccc(C(=O)OCCN2CCS(=O)(=O)CC2)cc1	115
CCN(CCO)CCOC(=O)c1ccc(N)cc1	115
CC1CN(CCOC(=O)c2ccc(N)cc2)CCO1 (stereo unspecified)	188

[Q] Give a short answer stating reported LD50 for CC1COCC(C)N1CCOC(=O)c1ccc(N)cc1 (stereo unspecified) .
[A] 399

[Q] Name the recorded LD50 of the item COCCN(CCOC)CCOC(=O)c1ccc(N)cc1 in your answer.
[A] 104

[Q] Give the reported LD50 for this compound. Nc1ccc(C(=O)OCCN2CC[S+]([O-])CC2)cc1
[A] 110

====

- PROCEDURE SUMMARY: Lipophilicity, log D of the compound
- Format: physicochemical
- TEST CONDITIONS: octanol/water
Catalogue of logD readings, one per entry.
Reply with just the number.

CC1CN(CCOC(=O)c2ccc(N)cc2)CCO1 (stereo not given)	1
Nc1ccc(C(=O)OCCN2CCOCC2)cc1	0.54
CC(C)N1CCN(CCOC(=O)c2ccc(N)cc2)CC1	0.92
CN1CCN(CCOC(=O)c2ccc(N)cc2)CC1	0.43

[Q] Report measured logD; entry is CC1CC(C)CN(CCOC(=O)c2ccc(N)cc2)C1 (stereo not given)
[A] 3.2

[Q] Determine from records and report logD for CCN(CC)CCOC(=O)c1ccc(N)cc1 [PROCAINE]
[A] 1.07

[Q] Note down logD recorded for COCCN(CCOC)CCOC(=O)c1ccc(N)cc1
[A] 0.83

[Q] Using the record for Nc1ccc(C(=O)OCCN2CC[S+]([O-])CC2)cc1 , state its measured logD.
[A] 1.55

[Q] # return recorded logD for input CC(C)(C)N1CCN(CCOC(=O)c2ccc(N)cc2)CC1
[A] 1.15

[Q] Give logD for CCN1CCN(CCOC(=O)c2ccc(N)cc2)CC1
[A] 0.81

====

Below, each entry is listed alongside its reported ED50.
- System: Mus musculus
- PROCEDURE SUMMARY: Anesthetic activity in mouse assessed as loss of righting […] administered as single injection via caudal vein
- Type: functional
- TEST CONDITIONS: route iv
Report as a plain number; the unit mg/kg is understood.

Study these solved cases before continuing.
CCN(CC)CCOC(=O)c1ccc(N)cc1	42.8
Nc1ccc(C(=O)OCCN2CCOCC2)cc1	148
CC(C)N1CCN(CCOC(=O)c2ccc(N)cc2)CC1	52.8
Nc1ccc(C(=O)OCCN2CC[S+]([O-])CC2)cc1	42.7
CC1COCC(C)N1CCOC(=O)c1ccc(N)cc1 (configuration not stated)	160

[Q] Quickly give me recorded ED50 for CN1CCN(CCOC(=O)c2ccc(N)cc2)CC1
[A] 84.2

[Q] Provide ED50 value for the following compound: CC1CN(CCOC(=O)c2ccc(N)cc2)CCO1 (configuration not stated)
[A] 90.2

[Q] Identify measured ED50 corresponding to CCN(CCO)CCOC(=O)c1ccc(N)cc1
[A] 90.2

[Q] Quote ED50 reported for CC1CC(C)CN(CCOC(=O)c2ccc(N)cc2)C1 (configuration not stated) please.
[A] 33.9

[Q] Dear colleague, please send me the reported ED50 for Nc1ccc(C(=O)OCCN(CCO)CCO)cc1 when you can.
[A] 128

[Q] For COCCN(CCOC)CCOC(=O)c1ccc(N)cc1 , write its ED50.
[A] 55.2

[Q] Consider the compound Nc1ccc(C(=O)OCCN2CCS(=O)(=O)CC2)cc1 . State its measured ED50.
[A] 45.5
